assayed system: Pyruvate kinase PKLR (Rattus norvegicus)
assay comment: Relative inhibitory potency as ratio of kidney and liver pyruvate kinases
readout name: Relative inhibitory potency

The following compounds have reported results that may help.
1) CO[C@H]1[C@@H](O)[C@H](n2cnc3c(N)ncnc32)O[C@@H]1COP(=O)(O)OP(=O)(O)O :: 7.6
2) CNc1nc(N)c2ncn(C3O[C@H](COP(=O)(O)OP(=O)(O)O)[C@@H](O)[C@H]3O)c2n1 (some centres undefined) :: 1.4

P = Nc1nc(N)c2ncn(C3O[C@H](COP(=O)(O)OP(=O)(O)O)[C@@H](O)[C@H]3O)c2n1 (some centres undefined)
Q = Nc1ncnc2c1nc(Br)n2[C@@H]1O[C@H](COP(=O)(O)OP(=O)(O)O)[C@@H](O)[C@H]1O
Param metric = Relative inhibitory potency; output whichever of P , Q has the minimum value. Give the label under which the chosen entry appears.
P
(P: 0.61, Q: 1.3)
